Field: pre-emergence activity against VIOTR. Provide a value for each of the molecules that follow.
# Test system: VIOTR
# assayProcedure: Herbicidal pre-emergence action, section C (Table C12)
# Type: in vivo, Viola tricolor
# runParameters: application rate 320 g/ha; visual grading after ca. 3 weeks
Include the unit right after the number.

I have this molecule here, O=C1N(Cc2c(F)cccc2F)CCCC12CCCN(Cc1c(F)cccc1F)C2=O (single isomer, unassigned; (+)) , and I need its recorded pre-emergence activity against VIOTR. 100%

Now try Cc1cccc(CN2CCCC3(CCCN(Cc4cccc(C)c4F)C3=O)C2=O)c1F (racemic) . 90%

Now try O=C1N(Cc2cc(F)ccc2F)CCCC12CCCN(Cc1cc(F)ccc1F)C2=O (racemic) . 80%

Now try O=C1N(Cc2ccccc2)CCCC12CCCN(Cc1ccccc1Cl)C2=O (racemic) . 80%

Now try COc1ccccc1CN1CCCC2(CCCN(Cc3cccc(F)c3F)C2=O)C1=O (racemic) . 80%

Now try O=C1N(Cc2cccc(F)c2F)CCCC12CCCN(Cc1c(F)cccc1F)C2=O (racemic) . 80%

###

# System: ZEAMX
# assayProcedure: Post-emergence effects on crop plants (Table F1)
# Assay type: in vivo, Zea mays
# runParameters: application rate 80 g/ha, crop plant ZEAMX
measure: post-emergence activity against ZEAMX (%)
State the answer as a number, implicitly in %.

I have this compound here, O=C1N(Cc2cccc(F)c2F)CCC12CCCN(Cc1c(F)cccc1F)C2=O (racemic) , and I need its recorded post-emergence activity against ZEAMX. 0

Now try O=C1N(Cc2ccccc2)CCC12CCCN(Cc1cccc(F)c1F)C2=O (racemic) . 0

Now try O=C1N(Cc2ccccc2F)CCCC12CCN(Cc1ccccc1F)C2=O (racemic) . 0

Now try O=C1N(Cc2ccccc2Cl)CCCC12CCN(Cc1cccc(F)c1F)C2=O (racemic) . 0

Now try O=C1N(Cc2ccccc2F)CCCC12CCCN(Cc1ccccc1F)C2=O (racemic) [I-005] . 20

Now try O=C1N(Cc2cccc(F)c2F)CCCC12CCN(Cc1c(F)cccc1F)C2=O (racemic) . 20

Now try O=C1N(Cc2ccccc2F)CCCC12CCCN(Cc1ccccc1F)C2=O (single isomer, unassigned) [I-001] . 0

Now try COc1ccccc1CN1CCCC2(CCCN(Cc3cccc(F)c3F)C2=O)C1=O (racemic) . 0

###

Field: post-emergence activity against TRZAS. Provide a value for each of the molecules that follow.
# Tested on: TRZAS
# assayProcedure: Post-emergence effects on crop plants (Table F2)
# Format: in vivo, Triticum aestivum
# runParameters: application rate 320 g/ha, crop plant TRZAS
State the answer as a number, implicitly in %.

Form: Entry = O=C1N(Cc2ccccc2Br)CCCC12CCCN(Cc1c(F)cccc1F)C2=O (racemic) | System = TRZAS | post-emergence activity against TRZAS = ____ 20

Now try CC(c1c(F)cccc1F)N1CCCC2(CCCN(C(C)c3c(F)cccc3F)C2=O)C1=O (centres unmarked) . 0

Now try COc1ccccc1CN1CCCC2(CCCN(Cc3cccc(F)c3F)C2=O)C1=O (racemic) . 0

Now try O=C1N(Cc2ccccc2)CCCC12CCCN(Cc1ccccc1F)C2=O (racemic) . 0

Now try O=C1N(Cc2ccccc2)CCC12CCCN(Cc1cccc(F)c1F)C2=O (racemic) . 0

Now try O=C1N(Cc2c(F)ccc(F)c2F)CCCC12CCCN(Cc1c(F)ccc(F)c1F)C2=O (racemic) . 0

Now try O=C1N(Cc2ccccc2F)CCC12CCCN(Cc1c(F)cccc1F)C2=O (racemic) . 0

Now try O=C1N(Cc2ccsc2)CCCC12CCCN(Cc1cccc(F)c1F)C2=O (racemic) . 0

Now try O=C1N(Cc2ccc(Cl)s2)CCCC12CCCN(Cc1ccc(Cl)s1)C2=O (racemic) . 10

Now try O=C1N(Cc2cc(F)c(F)cc2F)CCCC12CCCN(Cc1cc(F)c(F)cc1F)C2=O (single isomer, unassigned; (+)) . 0

Now try O=C1N(Cc2cc(F)ccc2Cl)CCCC12CCCN(Cc1cc(F)ccc1Cl)C2=O (racemic) . 0

Now try O=C1N(Cc2c(F)cccc2Cl)CCCC12CCCN(Cc1c(F)cccc1Cl)C2=O (racemic) . 0

Now try Cc1cccc(CN2CCCC3(CCCN(Cc4cccc(C)c4F)C3=O)C2=O)c1F (racemic) . 10

Now try O=C1N(Cc2cccc(F)c2Cl)CCCC12CCCN(Cc1cccc(F)c1Cl)C2=O (racemic) . 20

Now try O=C1N(Cc2cccc(F)c2F)CCCC12CCN(Cc1c(F)cccc1F)C2=O (racemic) . 0

Now try O=C1N(Cc2ccccc2F)CCCC12CCN(Cc1c(F)cccc1F)C2=O (racemic) . 0

Now try O=C1N(Cc2ccccc2)CCCC12CCN(Cc1cccc(F)c1F)C2=O (racemic) . 0

Now try O=C1N(Cc2ccccc2Cl)CCC12CCCN(Cc1c(F)cccc1F)C2=O (racemic) . 0

Now try O=C1N(Cc2ccccc2Cl)CCCC12CCN(Cc1cccc(F)c1F)C2=O (racemic) . 0

Now try O=C1N(Cc2c(F)cccc2F)CCCC12CCCN(Cc1c(F)cccc1F)C2=O (racemic) [I-006] . 10

Now try O=C1N(Cc2c(F)cccc2F)CCCC12CCCN(Cc1c(F)cccc1F)C2=O (single isomer, unassigned; (+)) [I-083] . 10

Now try O=C1N(Cc2cccc(F)c2F)CCCC12CCN(Cc1cccc(F)c1F)C2=O (racemic) . 0

Now try O=C1N(Cc2ccccc2)CCCC12CCCN(Cc1ccccc1Cl)C2=O (racemic) . 0

Now try O=C1N(Cc2ccccc2F)CCCC12CCN(Cc1ccccc1F)C2=O (racemic) . 0

Now try Cc1ccccc1CN1CCCC2(CCCN(Cc3ccccc3F)C2=O)C1=O (racemic) . 10

Now try O=C1N(Cc2cc(F)ccc2F)CCCC12CCCN(Cc1cc(F)ccc1F)C2=O (racemic) . 10

Now try O=C1N(Cc2ccc(F)cc2F)CCCC12CCCN(Cc1ccc(F)cc1F)C2=O (racemic) . 0

Now try CC(c1ccccc1F)N1CCCC2(CCCN(C(C)c3ccccc3F)C2=O)C1=O (centres unmarked) . 0

Now try O=C1N(Cc2ccccc2F)CCCC12CCN(Cc1ccccc1Cl)C2=O (racemic) . 0
